systemUnderTest: Peregrin (Homo sapiens) (UniProt P55201)
Sequence (P55201 whole entry): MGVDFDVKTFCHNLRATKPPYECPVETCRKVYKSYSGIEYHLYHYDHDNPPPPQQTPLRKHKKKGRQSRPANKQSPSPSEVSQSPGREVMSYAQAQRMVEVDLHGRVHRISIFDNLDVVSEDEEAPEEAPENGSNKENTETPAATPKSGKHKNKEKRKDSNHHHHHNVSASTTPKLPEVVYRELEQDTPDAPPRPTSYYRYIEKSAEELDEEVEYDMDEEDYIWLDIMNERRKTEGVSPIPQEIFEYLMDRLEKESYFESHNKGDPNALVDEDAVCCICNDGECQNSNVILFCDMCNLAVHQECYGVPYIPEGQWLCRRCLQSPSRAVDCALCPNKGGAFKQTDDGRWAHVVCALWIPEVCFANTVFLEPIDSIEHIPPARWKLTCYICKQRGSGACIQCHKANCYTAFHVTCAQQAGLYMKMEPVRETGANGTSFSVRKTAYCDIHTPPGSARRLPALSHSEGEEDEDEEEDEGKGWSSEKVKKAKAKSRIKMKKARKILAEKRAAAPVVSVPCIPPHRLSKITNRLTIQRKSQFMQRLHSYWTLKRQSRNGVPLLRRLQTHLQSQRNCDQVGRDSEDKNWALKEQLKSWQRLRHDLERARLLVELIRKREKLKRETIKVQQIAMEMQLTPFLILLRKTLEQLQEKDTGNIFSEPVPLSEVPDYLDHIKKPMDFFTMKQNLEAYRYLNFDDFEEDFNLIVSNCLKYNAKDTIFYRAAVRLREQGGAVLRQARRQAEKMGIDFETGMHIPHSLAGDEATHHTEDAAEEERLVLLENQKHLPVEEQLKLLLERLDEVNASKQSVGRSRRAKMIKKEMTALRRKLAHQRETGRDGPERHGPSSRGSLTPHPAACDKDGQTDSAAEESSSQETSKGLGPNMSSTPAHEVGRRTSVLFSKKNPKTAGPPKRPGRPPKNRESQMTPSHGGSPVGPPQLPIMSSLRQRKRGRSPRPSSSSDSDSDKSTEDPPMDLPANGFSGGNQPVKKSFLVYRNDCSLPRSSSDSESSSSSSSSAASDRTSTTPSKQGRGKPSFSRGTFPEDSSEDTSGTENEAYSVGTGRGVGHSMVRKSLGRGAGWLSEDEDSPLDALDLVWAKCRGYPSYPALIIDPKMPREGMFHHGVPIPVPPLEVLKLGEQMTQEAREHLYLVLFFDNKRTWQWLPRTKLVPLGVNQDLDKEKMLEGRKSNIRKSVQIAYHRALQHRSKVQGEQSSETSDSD
testSettings: Compound concentration 20.0 uM, Protein concentration 2.0 uM, Result type QC Liability
measureName: ΔTm (°C)

compound: Cc1ccccc1Oc1cc(-n2c(=O)cc(C(F)(F)F)[nH]c2=O)c2ccccc2c1Cl
measureName: ΔTm
measuredNumber: -1.36
--
compound: O=C(NCCN1CCOCC1)c1ccc2nn(CCOc3ccc(Cl)cc3)cc2c1
measureName: ΔTm
measuredNumber: -2.21
--
compound: COc1cc(N(C)c2ccnc3ccc(C(F)(F)F)cc23)cc(OC)c1OC
measureName: ΔTm
measuredNumber: -1.93
--
compound: O=C(O)CCC/C=C\C[C@@H]1[C@@H](/C=C/[C@@H](O)COc2cccc(C(F)(F)F)c2)[C@H](O)C[C@@H]1O
measureName: ΔTm
measuredNumber: -2.28
--
compound: Oc1c(-c2cccnc2)cnn1-c1ccccn1
measureName: ΔTm
measuredNumber: -1.78
--
compound: COc1cccc(Cn2cc(C(=O)Nc3ccc(C)c(S(=O)(=O)N4CCOCC4)c3)c(-c3ccc(C)cc3)n2)c1
measureName: ΔTm
measuredNumber: 4.54
--
compound: CCc1cc2c(cc1N1CCC(N3CCOCC3)CC1)C(C)(C)c1[nH]c3cc(C#N)ccc3c1C2=O
measureName: ΔTm
measuredNumber: -1
--
compound: NCCCc1c(C(=O)O)[nH]c2ccc(C(=O)Nc3ccccc3)cc12
measureName: ΔTm
measuredNumber: -1.68
--
compound: Cc1nsc(Nc2cnc(C(F)(F)F)cn2)c1C(=O)Nc1ccc(O[C@H]2CCCN(CC(F)(F)F)C2)nc1
measureName: ΔTm
measuredNumber: -3.38
--
compound: CN1C(=O)Cc2ccc(-c3ccc(C[C@@H](C#N)NC(=O)[C@@H]4N[C@H]5CC[C@@H]4C5)c(F)c3)cc21
measureName: ΔTm
measuredNumber: 1.91
--
compound: Cc1nc2ccccc2c(-c2ccc3c4c(ccnc24)CCO3)c1[C@H](OC(C)(C)C)C(=O)O
measureName: ΔTm
measuredNumber: -2.17
--
compound: CS(=O)(=O)CCNCc1ccc(-c2ccc3ncnc(Nc4ccc(OCc5cccc(F)c5)c(Cl)c4)c3c2)o1
measureName: ΔTm
measuredNumber: -1.41
--
compound: CCOc1cc(CC(=O)N[C@@H](CC(C)C)c2ccccc2N2CCCCC2)ccc1C(=O)O
measureName: ΔTm
measuredNumber: -3.67
--
compound: CCCCC[C@@](C)(O)/C=C/[C@H]1C(=O)CC(O)C1C/C=C\CCCC(=O)O (stereo not given in full)
measureName: ΔTm
measuredNumber: -1.97
--
compound: CC(C)(O)CNC(=O)N1C(=O)N(c2cccc(C(F)(F)F)c2)C2=C(C(=O)CC2)[C@@H]1c1ccc(C#N)cc1
measureName: ΔTm
measuredNumber: -2.73
--
compound: O=C1CCC(N2Cc3cc(CNC(=O)C(F)(F)c4ccc(Cl)cc4)ccc3C2=O)C(=O)N1 (stereo not given)
measureName: ΔTm
measuredNumber: -1.67
--
compound: CC(C)N1CCN(Cc2cnc(-c3cc(-c4cccc5[nH]ccc45)cc4[nH]ncc34)o2)CC1
measureName: ΔTm
measuredNumber: 0.22
--
compound: O=C(O)CCn1c2c(c3ccccc31)C[C@H](NS(=O)(=O)c1ccc(F)cc1)CC2
measureName: ΔTm
measuredNumber: -1.45
--
compound: CCCCNc1ncc2c(-c3ccc(CN4CCN(C)CC4)cc3)cn([C@H]3CC[C@H](O)CC3)c2n1
measureName: ΔTm
measuredNumber: -3.2
--
compound: COc1ccc(N(C(=O)Nc2c(C)cccc2C)c2cc(Nc3ccc(N4CCN(C)CC4)cc3)ncn2)c(OC)c1
measureName: ΔTm
measuredNumber: -3.64
--
compound: Cc1cccc(CC(=O)N2CCc3c2ccc(-c2cn(C)c4ncnc(N)c24)c3F)n1
measureName: ΔTm
measuredNumber: -2.12
--
compound: CSc1nc2c(c(=O)n(C)c(=O)n2C)n1C
measureName: ΔTm
measuredNumber: -2.2
--
compound: FC(F)c1cncc(-c2ccc3ncc4nnc(C5=CCCOCC5)n4c3c2)c1
measureName: ΔTm
measuredNumber: -2.16
--
compound: N#CN1CC[C@H](C(=O)Nc2nc3c(s2)CN(C(=O)CN=[N+]=[N-])CC3)C1
measureName: ΔTm
measuredNumber: -1.51
--
compound: O=C(O)Cc1ccc(CCNS(=O)(=O)c2ccc(Cl)cc2)cc1
measureName: ΔTm
measuredNumber: -2.91
--
compound: C[C@H](CCC(=O)O)[C@H]1CC[C@H]2[C@@H]3CC[C@@H]4C[C@H](O)CC[C@]4(C)[C@H]3CC[C@]12C
measureName: ΔTm
measuredNumber: -3.84
--
compound: O=C(Cc1ccccc1)Nc1nnc(N2C[C@H]3C[C@@H]2CN3c2cccnn2)s1
measureName: ΔTm
measuredNumber: -0.88
--
compound: O=C(Cc1ccccc1)Nc1nnc(N2CC[C@@H]3[C@H]2CN3c2cccnn2)s1
measureName: ΔTm
measuredNumber: -0.69
--
compound: COc1cc2ncnc(N[C@H](C)c3ccccc3)c2cc1OC1CCN(S(C)(=O)=O)CC1
measureName: ΔTm
measuredNumber: -0.11
--
compound: CN1CCC(C#N)(NC(=O)[C@@H](NC(=O)N2CCOCC2)C(C)(C)C)CC1
measureName: ΔTm
measuredNumber: -2.33
--
compound: CNc1nc(-c2ccc3c(N)n[nH]c3c2)cc(N2C[C@@H](C(=O)NC3CCCCC3)CC[C@H]2C)n1
measureName: ΔTm
measuredNumber: -2.05
--
compound: CC(=O)Oc1ccc2c(c1)[C@@]1(C)CCC[C@](C)(C(=O)OC(=O)[C@@]3(C)CCC[C@]4(C)c5cc(OC(C)=O)ccc5CC[C@@H]34)[C@@H]1CC2
measureName: ΔTm
measuredNumber: -2.67
--
compound: CC1(C)CCC(CN2CCN(c3ccc(C(=O)NS(=O)(=O)c4ccc(NCC5CCOCC5)c([N+](=O)[O-])c4)c(Oc4cnc5[nH]ccc5c4)c3)CC2)=C(c2ccc(Cl)cc2)C1
measureName: ΔTm
measuredNumber: -1.4
--
compound: CCOC(=O)c1cc2cc(-c3cc(C(=O)NCc4ccc(C(=O)O)cc4)nn3C)ccc2[nH]1
measureName: ΔTm
measuredNumber: -3.42
--
compound: CC(C)(O)c1coc(S(=O)(=O)NC(=O)Nc2c3c(cc4c2CCC4)CCC3)c1
measureName: ΔTm
measuredNumber: -2.87
